Recorded values, source patent US5036081A.

assay: Acute oral toxicity in rats; conditions: rat, in vivo, rats (Wistar)
value-kind: LD50

### Prompt Return the recorded LD50 value; entry: OCC(CO)N[C@H]1C[C@](O)(CO)[C@@H](O)[C@H](O)[C@H]1O [AO-128, N-(1,3-dihydroxy-2-propyl)valiolamine]
### Response ~20000 mg/kg
